- Test Target: T1, Nrd1_(6–224) (S. cerevisiae, UniProt P53617 6-224)
- T1 sequence: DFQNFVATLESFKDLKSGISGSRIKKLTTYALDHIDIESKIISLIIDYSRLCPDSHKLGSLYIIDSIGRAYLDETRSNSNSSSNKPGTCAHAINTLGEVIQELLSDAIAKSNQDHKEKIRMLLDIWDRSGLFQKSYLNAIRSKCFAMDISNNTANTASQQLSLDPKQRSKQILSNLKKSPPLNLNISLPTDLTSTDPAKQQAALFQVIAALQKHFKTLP
- Assay: ITC
Measured Endpoint: Kd (nM)
Numbers only, in nM.

Per the record, ENVNYDLLQKQVKYIMDSNMLNLPQFQHLPQEEKMSAILAMLNSN (domain or fragment) [Nab3_(204–248)] has Kd of 160
